- MEASURED_ON: JAK2 (Homo sapiens)
- Construct: endogenous in cells
- Sequence (O60674 whole entry): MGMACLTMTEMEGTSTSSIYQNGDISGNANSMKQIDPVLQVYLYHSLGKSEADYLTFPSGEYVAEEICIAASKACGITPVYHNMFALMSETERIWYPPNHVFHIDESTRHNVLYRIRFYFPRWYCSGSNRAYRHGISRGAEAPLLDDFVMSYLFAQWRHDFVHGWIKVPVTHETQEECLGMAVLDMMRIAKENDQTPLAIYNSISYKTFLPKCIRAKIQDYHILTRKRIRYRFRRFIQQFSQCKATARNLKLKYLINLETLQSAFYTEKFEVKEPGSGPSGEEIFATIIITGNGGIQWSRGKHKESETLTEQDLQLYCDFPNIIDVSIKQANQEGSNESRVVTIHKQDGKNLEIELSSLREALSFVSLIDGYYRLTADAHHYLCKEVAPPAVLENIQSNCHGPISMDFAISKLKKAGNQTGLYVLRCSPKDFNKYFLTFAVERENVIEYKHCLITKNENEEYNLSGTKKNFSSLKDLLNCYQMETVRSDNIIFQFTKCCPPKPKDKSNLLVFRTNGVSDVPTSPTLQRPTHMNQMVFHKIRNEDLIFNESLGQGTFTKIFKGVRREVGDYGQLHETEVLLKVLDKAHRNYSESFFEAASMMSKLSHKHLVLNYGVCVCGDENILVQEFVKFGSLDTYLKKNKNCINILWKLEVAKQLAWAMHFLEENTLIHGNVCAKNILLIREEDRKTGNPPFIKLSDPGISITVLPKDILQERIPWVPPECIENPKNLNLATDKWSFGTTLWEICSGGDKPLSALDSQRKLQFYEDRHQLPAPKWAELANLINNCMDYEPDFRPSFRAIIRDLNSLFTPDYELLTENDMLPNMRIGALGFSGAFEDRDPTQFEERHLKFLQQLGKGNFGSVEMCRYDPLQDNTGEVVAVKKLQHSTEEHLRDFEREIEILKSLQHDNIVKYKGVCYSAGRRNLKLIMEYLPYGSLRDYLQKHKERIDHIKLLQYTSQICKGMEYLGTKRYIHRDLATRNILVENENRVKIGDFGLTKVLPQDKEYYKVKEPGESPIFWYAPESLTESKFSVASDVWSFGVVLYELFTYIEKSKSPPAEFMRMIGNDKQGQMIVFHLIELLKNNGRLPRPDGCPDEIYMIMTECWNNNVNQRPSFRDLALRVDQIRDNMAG
- EXPERIMENTAL_DETAILS: Kinobeads assay, JAK2
- STATED_CONDITIONS: mixed Molt4/Ramos lysate, read-out: Inhibition values (IC50) JAK2
pIC50: −log10 of the molar value.
OUTCOME_MEASURE: pIC50

Quick check: pIC50 of CNC(=O)Cn1cc(Nc2ncc(F)c(N[C@H](CO)c3ccccc3)n2)cn1 ?
≤ 5.00

Quick check: pIC50 of CC[C@@H](Nc1nc(Nc2cnn(C)c2)ncc1Cl)c1ccccc1 ?
5.00 to 6.00

Quick check: pIC50 of Cc1cnc(Nc2cnn(CC(F)F)c2)nc1N[C@H](CO)c1cc(F)ccc1F ?
5.00 to 6.00

Quick check: pIC50 of OCCn1cc(Nc2ncc(Cl)c(NC(CO)Cc3ccccc3)n2)cn1 (stereo not drawn) ?
5.00 to 6.00

Quick check: pIC50 of OCCn1cc(Nc2ncc(Cl)c(NC(CO)c3ccccc3F)n2)cn1 (stereo not drawn) ?
5.00 to 6.00

Quick check: pIC50 of CNC(=O)Cn1cc(Nc2ncc(Cl)c(N[C@H](CO)c3cccc(OC)c3)n2)cn1 ?
≤ 5.00

Quick check: pIC50 of COC(=O)C(Nc1nc(Nc2cnn(CCO)c2)ncc1Cl)c1ccccc1 (stereo not drawn) ?
≤ 5.00

Quick check: pIC50 of Cn1cc(Nc2ncc(C(F)(F)F)c(N[C@H](CO)c3ccccc3)n2)cn1 ?
≤ 5.00

Quick check: pIC50 of OCCn1cc(Nc2ncc(Cl)c(N[C@@H](CO)c3ccccc3)n2)cn1 ?
≤ 5.00
